Assay System: CD28 (human) (UniProt P10747)
Protocol Summary: flow cytometry, Jurkat/IL2 reporter cells (CD28)
Experimental Readout: MFI at 33.3 nM (MFI)

[I] variant CD80 IgV-Fc M47V (Fc fusion) VIHVTKEVKEVATLSCGHNVSVEELAQTRIYWQKEKKMVLTMMSGDVNIWPEYKNRTIFDITNNLSIVILALRPSDEGTYECVVLKYEKDAFKREHLAEVTLSVKAD
[II] variant CD80 IgV-Fc E35D/N48K/K89N (Fc fusion) VIHVTKEVKEVATLSCGHNVSVEELAQTRIYWQKDKKMVLTMMSGDMKIWPEYKNRTIFDITNNLSIVILALRPSDEGTYECVVLKYENDAFKREHLAEVTLSVKAD
[III] variant CD80 IgV-Fc E35D/K89N (Fc fusion) VIHVTKEVKEVATLSCGHNVSVEELAQTRIYWQKDKKMVLTMMSGDMNIWPEYKNRTIFDITNNLSIVILALRPSDEGTYECVVLKYENDAFKREHLAEVTLSVKAD
[IV] variant CD80 IgV-Fc V22A/E35D/M47I/Y87N (Fc fusion) VIHVTKEVKEVATLSCGHNVSAEELAQTRIYWQKDKKMVLTMMSGDINIWPEYKNRTIFDITNNLSIVILALRPSDEGTYECVVLKNEKDAFKREHLAEVTLSVKAD
List from greatest to least MFI at 33.3 nM. Write the labels out in the order the request specifies.
IV, II, III, I
(IV: 15300 MFI, II: 411 MFI, III: 236 MFI, I: 68.7 MFI)
